- Method Summary: C18 tag solubility in screening solvents (slurry agitated overnight, supernatant assayed by calibrated HPLC)
- Type: physicochemical
- Test Context: organic solvent or mixture, thermodynamic from solid; solvent PhMe, 20 °C
Parameter: solubility (mg/mL)
Give just the number in mg/mL; leave the unit off.

solubility reported for this compound `CCCCCCCCCCCCCCCCCCOc1cc(CO)cc(OCCCCCCCCCCCCCCCCCC)c1OCCCCCCCCCCCCCCCCCC` : 57.8

###

- Method Summary: C18 tag solubility in screening solvents (slurry agitated overnight, supernatant assayed by calibrated HPLC)
- Type: physicochemical
- Test Context: organic solvent or mixture, thermodynamic from solid; solvent Heptanes, 20 °C
Parameter: solubility (µg/mL)
Give just the number in µg/mL; leave the unit off.

solubility reported for this compound `CCCCCCCCCCCCCCCCCCOc1cc(CO)cc(OCCCCCCCCCCCCCCCCCC)c1OCCCCCCCCCCCCCCCCCC` : 1630

###

- Method Summary: C18 tag solubility in screening solvents (slurry agitated overnight, supernatant assayed by calibrated HPLC)
- Assay type: physicochemical
- Test Context: organic solvent or mixture, thermodynamic from solid; solvent MTBE, 20 °C
Parameter: solubility (mg/mL)
Give just the number in mg/mL; leave the unit off.

solubility reported for this compound `CCCCCCCCCCCCCCCCCCOc1cc(CO)cc(OCCCCCCCCCCCCCCCCCC)c1OCCCCCCCCCCCCCCCCCC` : 43.8

###

- Method Summary: C18 tag solubility in screening solvents (slurry agitated overnight, supernatant assayed by calibrated HPLC)
- Assay type: physicochemical
- Test Context: organic solvent or mixture, thermodynamic from solid; solvent CPME, 20 °C
- Procedure: Provided in this section is an analysis of the solubility of the C18 tag in various organic solvents. All starting materials are either commercially available from Sigma-Aldrich, Oakwood Chemicals, ChemPep Inc., CombiBlocks, or similar vendors, unless otherwise noted, or known in the art and may be synthesized by employing known procedures using ordinary skill. (3,4,5-trioctadecoxyphenyl)methanol (200 mg) was measured out into a series of 1-dram vials. […]
Parameter: solubility

solubility reported for this compound `CCCCCCCCCCCCCCCCCCOc1cc(CO)cc(OCCCCCCCCCCCCCCCCCC)c1OCCCCCCCCCCCCCCCCCC` : 6800 µg/mL

###

- Method Summary: C18 tag solubility in screening solvents (slurry agitated overnight, supernatant assayed by calibrated HPLC)
- Type: physicochemical
- Test Context: organic solvent or mixture, thermodynamic from solid; solvent 2-Me-THF, 20 °C
Parameter: solubility

solubility reported for this compound `CCCCCCCCCCCCCCCCCCOc1cc(CO)cc(OCCCCCCCCCCCCCCCCCC)c1OCCCCCCCCCCCCCCCCCC` : 172 mg/mL
